Exercise: for every item that follows, state its recorded apparent KD of MS2 coat protein.
Test system: MS2 coat protein
Test: apparent KD of MS2 coat protein; designed switch direction (-1 OFF switch, 1 ON switch): -1; higher = weaker reporter binding
Conditions: Eterna round: R95; input ligand: microRNA oligo, concentration not stated
Unit µM implied. Number only.

-- ask Read off the recorded apparent KD of MS2 coat protein for UCGCUGCGAGGAUAUACAUGAGGAUCACCCAUGUACGGGUCCGGGUCUUUGUCUAUUGGUAGAAGGCGCAGUGA [JL Laongeedie mod 9] (puzzle: Exclusion 3)
-- reply 0.0515

-- ask For the sequence CUCCUCAUGGCGCCUAAACACAUGAGGAUCACCCAUGUACAGGCUUUUUGCCGUCUUAUAAUAAAACCGAGGAUACG [Raaen] (puzzle: Sensor v3, turn-off variant 1) , report apparent KD of MS2 coat protein.
-- reply 0.167

-- ask Quick one: give measured apparent KD of MS2 coat protein for AAGAAACAUGAGGAUCACCCAUGUGAGGAUAUGAAAAAGAAAAGAAAAGAAAGAAGAUUCAGAAGGCACAAAGG [salish99-ex1_r3_021] (puzzle: Exclusion 1)
-- reply 0.0319

-- ask Answer with reported apparent KD of MS2 coat protein of GGUGCGUUUGUGAGGAUAUGCUGGUCCUUGGUUCGGCAGAAGGCACAUGAGGAUCACCCAUGUGGUGUCGUACC [salish99_Bmod_Ex4_043] (puzzle: Brourd's mod of Exclusion 4)
-- reply 0.0157

-- ask Specify reported apparent KD of MS2 coat protein for the sequence shown: GGUCUACAUGAGGAUCACCCAUGUCAGGAUAUCGUGUGUUUUUUUUCGGCCGCGCGUGCGAGAAGGGACGUCUU (puzzle: Exclusion 1)
-- reply 0.0166

-- ask Using known records, supply apparent KD of MS2 coat protein for GAUUGACAUGAGGAUCACCCAUGUGAGGAUAUCGGCUGGACCGUGUUGGCUUCCGUCGCGAGAAGGCGCAUAGG [Exclusion 1 V42] (puzzle: Exclusion 1)
-- reply 0.0435

-- ask Provide only the value of recorded apparent KD of MS2 coat protein for GCAGGUUAAGUCAGGAUAUACCUAUGGAUACAUAGGUAGAAGGGACAUGAGGAUCACCCAUGUGCCUCGCCUGC [Fiskers BMX 4 - 58] (puzzle: Brourd's mod of Exclusion 4)
-- reply 0.0154

-- ask Please report the measured apparent KD of MS2 coat protein for CUGGUGUGAGGAUAUCAAAGACCUCGGGAAAGAACCGAGAAUGAGAAGGCACAUGAGGAUCACCCAUGUAACAA [Enerteon] (puzzle: Exclusion 4)
-- reply 0.0179

-- ask State its apparent KD of MS2 coat protein for this sequence: CCGAAUAUGUAGGAUAUCGUAUCGGAAACGAUACGAGAAGGACAAACAUGAGGAUCACCCAUGUUCCUUAACGG [Fiskers Ex 6 - 12] (puzzle: Exclusion 6)
-- reply 0.0156

-- ask Report measured apparent KD of MS2 coat protein; entry is AGAAAUGCCCAUGGCCACAAGCUUUUUGCUUGCCUUACCACAUGAGGAUCACCCAUGUGACAUGGGCUCCUUAUAAU [Teoredale] (puzzle: Sensor v3, turn-off variant 2)
-- reply 0.0131

-- ask Item GGAUCGAGUGUGAGGAUAUGCUGGUCCUUGGAUCAGCAGAAGGCACAUGAGGAUCACCCAUGUGAAAACGGUCC [Mat - Exclusion 4 - JL Mod - D70] (puzzle: Brourd's mod of Exclusion 4) : provide apparent KD of MS2 coat protein
-- reply 0.0227

-- ask Answer with the recorded apparent KD of MS2 coat protein for the sequence listed here: AGAAAUGCCCAUGACCGCAAGCUUUUUGCUUGUCUUACCACAUGAGGAUCACCCAUGUGACAUGGGCUCCUGAUAAU [Onlaleti] (puzzle: Sensor v3, turn-off variant 2)
-- reply 0.0114

-- ask Given the sequence AAUAAACAUGAGGAUCACCCAUGUCAGGAUAUACGAAGAAAGAAAGAAAGAAAGAAGAGUAGAAGGGAUAGGAA [Excls1-III] (puzzle: Exclusion 1) , write its reported apparent KD of MS2 coat protein.
-- reply 0.0293

-- ask Please give measured apparent KD of MS2 coat protein of the following entry: AAUACUAACACGAAAGUGUUAGUACAAUAAGCUUGUGGUACAUGAGGAUCACCCAUGUCCUCAUAAGCUCGUCUUAU [Mat - Sensor v3 - Turn-off var 2 - D41] (puzzle: Sensor v3, turn-off variant 2)
-- reply 0.0745

-- ask For the sequence ACAAAGGGAGUCAGGAUAUCGGACGUAAGUCAAGACGAGAAGGGACAUGAGGAUCACCCAUGUCAGCGGUGAAA [Exclusion 4 S1] (puzzle: Brourd's mod of Exclusion 4) , give its measured apparent KD of MS2 coat protein value.
-- reply 0.0187

-- ask Given CUGAGGUAGCGGUCCUAUGACAUGAGGAUCACCCAUGUACCUUGCUAUAAGCUUUUUGCUCGUCUUAUGAUUCUCGG [JL Atriat mod 7] (puzzle: Sensor v3, turn-off variant 1) , respond with its apparent KD of MS2 coat protein.
-- reply 0.713

-- ask Read off the recorded apparent KD of MS2 coat protein for AUUAAAAUAUAGGAUAUCGAAUAUAUUAUUUAACGAGAAGGAUGAACAUGAGGAUCACCCAUGUGGUAUCAUGG [Mat - Exclusion 6 - JL Mod - D36] (puzzle: Exclusion 6)
-- reply 0.298

-- ask Supply measured apparent KD of MS2 coat protein of GUGUACUGAGGAUAUGCUGGAAUCUAGCGAAGCUAGGUUCCACAUGAGGAUCACCCAUGUAGAAGGCGGUACAC [Dot plot directed A v6] (puzzle: Exclusion 2) in your reply.
-- reply 0.0291

-- ask Please look at this sequence and report its apparent KD of MS2 coat protein: AAAGAACAUGAGGAUCACCCAUGUAAGGAUAUCCAAAAGAAGGAAAGAAAGAAAAGAAGGAGAAGGUACAAGAA [JR_Exclu1_Sub041] (puzzle: Exclusion 1)
-- reply 0.0607

-- ask Could you please provide reported apparent KD of MS2 coat protein for AGAUCACAUGAGGAUCACCCAUGUGAGGAUAUGAUACUAUGUACUUCGGUACAUAGUAUCAGAAGGCAUAUGAA [Ex1-3: 73] (puzzle: Exclusion 1) ? Thanks!
-- reply 0.0289

-- ask Return apparent KD of MS2 coat protein for the following sequence: UUUAAUUUUUUUUUUUUACAAGCUUUUUGCUCGUCUUAUACAUGAGGAUCACCCAUGUGGGUAGAAAGUAAAUUAUC [JMF 46] (puzzle: Sensor v3, turn-off variant 2)
-- reply 0.0436

Values compiled from the supplement of paper PMC9170038.
